Reported Ki for target or system Somatostatin receptor type 2 (Mus musculus, UniProt P30875), by entry.
Where a SMILES comes first, the peptide text is derived from it. [ ]: non-standard residue; d: D form. Phe(4-Cl) = N[C@@H](Cc1ccc(Cl)cc1)C(=O)O; dPhe(4-Cl) = N[C@H](Cc1ccc(Cl)cc1)C(=O)O; 2Nal = N[C@@H](Cc1ccc2ccccc2c1)C(=O)O; Ahp = NCCCCCCC(=O)O
Your reply should be a number followed by the unit it is expressed in.

molecule="C[C@@H](O)[C@@H]1NC(=O)[C@H](CCCCN)NC(=O)[C@@H](Cc2c[nH]c3ccccc23)NC(=O)[C@H](Cc2ccccc2)NC(=O)[C@@H]2CCCN2C(=O)[C@H](Cc2ccccc2)NC1=O (cyclo(PF[dW]KTF))" result="8.6 nM"

Exam item: Param item = CC(C)[C@H](NC(=O)[C@H](CCCCN)NC(=O)[C@@H](Cc1c[nH]c2ccccc12)NC(=O)[C@H](Cc1ccc(O)cc1)NC(=O)[C@H](C)NC(=O)[C@H](N)Cc1ccc(Cl)cc1)C(=O)N[C@@H](C)C(=O)N[C@@H](Cc1ccc2ccccc2c1)C(N)=O [CAS_150155-67-2] (H-[dPhe(4-Cl)]AY[dW]KVA[2Nal]-NH2) ; retrieve measured Ki.
Marked response: 22 nM

Exam item: Report Ki for C[C@@H](O)[C@@H]1NC(=O)[C@H](CCCCN)NC(=O)[C@@H](Cc2c[nH]c3ccccc23)NC(=O)[C@H](Cc2c[nH]c3ccccc23)NC(=O)[C@H](Cc2ccccc2)NC(=O)CCCCCCNC(=O)[C@H](Cc2ccccc2)NC1=O [L-362855] (cyclo([Ahp]FW[dW]KTF)) please.
Marked response: 29 nM

Exam item: State the recorded Ki for this entry: CC(C)[C@H](NC(=O)[C@H](CCCCN)NC(=O)[C@@H](Cc1c[nH]c2ccccc12)NC(=O)[C@H](Cc1ccc(O)cc1)NC(=O)[C@H](Cc1ccc(Cl)cc1)NC(=O)[C@@H](N)Cc1ccccc1)C(=O)N[C@@H](Cc1ccccc1)C(=O)N[C@H](C)C(N)=O [BIM 23064] (H-F[Phe(4-Cl)]Y[dW]KVF[dA]-NH2)
Marked response: 948 nM

* * *

Where a SMILES comes first, the peptide text is derived from it. Bridges are numbered along the chain shown (N, C = ends). [ ]: non-standard residue; d: D form. The star is where a group is joined. NH(1-naphthylmethyl) = c1ccc2c(CN*)cccc2c1; NMeA = CN[C@@H](C)C(=O)O; Abu = CC[C@H](N)C(=O)O
This section lists Ki readings for Somatostatin receptor type 2 (Mus musculus, UniProt P30875).
Numbers only; they are read as nM.

Here's what some known entries look like.
compound="CC(C)[C@H](NC(=O)[C@H](CCCCN)NC(=O)[C@@H](Cc1c[nH]c2ccccc12)NC(=O)[C@H](Cc1ccc(O)cc1)NC(=O)[C@H](Cc1ccccc1)NC(=O)[C@H](N)Cc1ccccc1)C(=O)N[C@@H](Cc1ccccc1)C(=O)N[C@H](C(N)=O)[C@@H](C)O [BIM-23058] (H-[dF]FY[dW]KVFT-NH2)" value_unit=nM result_number=46
compound="CC(C)[C@@H]1NC(=O)[C@H](CCCCN)NC(=O)[C@@H](Cc2c[nH]c3ccccc23)NC(=O)[C@H](Cc2ccc(O)cc2)NC(=O)[C@H](C)N(C)C(=O)[C@H](Cc2ccccc2)NC1=O [CAS_3086456]" value_unit=nM result_number=0.18
compound="NCCCCC1NC(=O)C(Cc2c[nH]c3ccccc23)NC(=O)C(Cc2ccc(O)cc2)NC(=O)C(NC(=O)C(N)Cc2ccccc2)CSSCC(C(=O)NCc2cccc3ccccc23)NC(=O)C(CO)NC1=O (stereo unspecified) [NC4-28B] (H-FCYWKSC-{NH(1-naphthylmethyl)}; disulfide 2-7; configuration not given here)" value_unit=nM result_number=0.002

Now turn to the next compound.
Exam item: Which measured Ki value corresponds to CC[C@@H]1NC(=O)[C@H](CCCCN)NC(=O)[C@@H](Cc2c[nH]c3ccccc23)NC(=O)[C@H](Cc2ccc(O)cc2)NC(=O)[C@H](C)N(C)C(=O)[C@H](Cc2ccccc2)NC1=O [BIM-23027] (cyclo([Abu]F[NMeA]Y[dW]K)) ?
Marked response: 0.001

* * *

Where a SMILES comes first, the peptide text is derived from it. Bridges are numbered along the chain shown (N, C = ends). [ ]: non-standard residue; d: D form. The star is where a group is joined. NH(1-naphthylmethyl) = c1ccc2c(CN*)cccc2c1; d2Nal = N[C@H](Cc1ccc2ccccc2c1)C(=O)O; 1Nal = N[CH](Cc1cccc2ccccc12)C(=O)O; Thr(ol) = C[CH](O)[CH](N)CO
Read-out record for Somatostatin receptor type 1 (Homo sapiens, UniProt P30872): Ki
Please reply with the bare figure in nM and do not write the unit itself.

Use these answered entries as a reference point.
molecule="CC(C)C1NC(=O)C(CCCCN)NC(=O)C(Cc2c[nH]c3ccccc23)NC(=O)C(Cc2ccc(O)cc2)NC(=O)C(NC(=O)C(N)Cc2cccc3ccccc23)CSSCC(C(=O)NC(CO)C(C)O)NC1=O (centres undefined) [DC23-60] (H-[1Nal]CYWKVC[Thr(ol)]; disulfide 2-7; configuration not given here)" value_kind=Ki result_number=241
molecule="CC(C)[C@H](NC(=O)[C@H](CCCCN)NC(=O)[C@@H](Cc1c[nH]c2ccccc12)NC(=O)[C@H](Cc1ccc(O)cc1)NC(=O)[C@H](Cc1ccccc1)NC(=O)[C@H](N)Cc1ccccc1)C(=O)N[C@@H](Cc1ccccc1)C(=O)N[C@H](Cc1ccccc1)C(N)=O (H-[dF]FY[dW]KVF[dF]-NH2)" value_kind=Ki result_number=1000
molecule="CC1NC(=O)C(CCCCN)NC(=O)C(Cc2c[nH]c3ccccc23)NC(=O)C(Cc2ccc(O)cc2)NC(=O)C(NC(=O)C(N)Cc2ccccc2)CSSCC(C(=O)NCc2cccc3ccccc23)NC1=O (centres undefined) [BIM 23034] (H-FCYWKAC-{NH(1-naphthylmethyl)}; disulfide 2-7; configuration not given here)" value_kind=Ki result_number=1000

Turning to the following molecule.
Exam item: Consider the molecule CC(C)[C@H](NC(=O)[C@H](CCCCN)NC(=O)[C@@H](Cc1c[nH]c2ccccc12)NC(=O)[C@H](Cc1ccc(O)cc1)NC(=O)[C@H](C)NC(=O)[C@H](N)Cc1ccc2ccccc2c1)C(=O)N[C@@H](C)C(=O)N[C@H](C(N)=O)[C@@H](C)O [D-Nal-Ala-Tyr-D-Trp-Lys-Val-Ala-Thr-NH2] (H-[d2Nal]AY[dW]KVAT-NH2) and give its measured Ki.
Marked response: 1000

* * *

biological target: UniProt P30872
Where a SMILES comes first, the peptide text is derived from it. Bridges are numbered along the chain shown (N, C = ends). [ ]: non-standard residue; d: D form. The star is where a group is joined. NH(1-naphthylmethyl) = c1ccc2c(CN*)cccc2c1; Phe(4-Cl) = N[C@@H](Cc1ccc(Cl)cc1)C(=O)O; 2Nal = N[C@@H](Cc1ccc2ccccc2c1)C(=O)O; d2Nal = N[C@H](Cc1ccc2ccccc2c1)C(=O)O; Ahp = NCCCCCCC(=O)O
Listing: pKi of selected compounds
Entry type: numeric. Quantity: pKi, the -log10 of concentration in molar units.

Example cases with answers are listed next.
compound="CC(C)[C@@H]1NC(=O)[C@H](CCCCN)NC(=O)[C@@H](Cc2c[nH]c3ccccc23)NC(=O)[C@H](Cc2ccc(O)cc2)NC(=O)[C@@H](NC(=O)[C@H](N)Cc2ccc3ccccc3c2)CSSC[C@@H](C(=O)N[C@@H](Cc2ccc3ccccc3c2)C(N)=O)NC1=O [BIM 23042] (H-[d2Nal]CY[dW]KVC[2Nal]-NH2; disulfide 2-7)" result_number=6.00
compound="CC(O)C1NC(=O)C(CCCCN)NC(=O)C(Cc2c[nH]c3ccccc23)NC(=O)C(Cc2ccccc2)NC(=O)C(NC(=O)C(N)Cc2ccccc2)CSSCC(C(=O)NCc2cccc3ccccc23)NC1=O (stereo unspecified) [EC5-21] (H-FCFWKTC-{NH(1-naphthylmethyl)}; disulfide 2-7; configuration not given here)" result_number=6.42

Exam item: Tell me the measured pKi of CC(C)[C@H](NC(=O)[C@H](CCCCN)NC(=O)[C@@H](Cc1c[nH]c2ccccc12)NC(=O)[C@H](Cc1ccc(O)cc1)NC(=O)[C@H](Cc1ccc(Cl)cc1)NC(=O)[C@@H](N)Cc1ccccc1)C(=O)N[C@@H](Cc1ccccc1)C(=O)N[C@H](C)C(N)=O [BIM 23064] (H-F[Phe(4-Cl)]Y[dW]KVF[dA]-NH2) , please.
Marked response: 6.00

Exam item: Dear colleague, I am looking for the recorded pKi of the following compound: CC(O)C1NC(=O)C(CCCCN)NC(=O)C(Cc2c[nH]c3ccccc23)NC(=O)C(Cc2ccc(O)cc2)NC(=O)C(NC(=O)C(N)Cc2ccccc2)CSSCC(C(=O)NCc2cccc3ccccc23)NC1=O (stereo unspecified) [BIM 23060] (H-FCYWKTC-{NH(1-naphthylmethyl)}; disulfide 2-7; configuration not given here)
Marked response: 6.00

Exam item: For the compound shown here, C[C@@H](O)[C@@H]1NC(=O)[C@H](CCCCN)NC(=O)[C@@H](Cc2c[nH]c3ccccc23)NC(=O)[C@H](Cc2ccccc2)NC(=O)CCCCCCNC1=O [c[Aha-Phe-D-Trp-Lys-Thr]] (cyclo([Ahp]F[dW]KT)) , give the reported pKi.
Marked response: 6.00

Exam item: Which pKi is reported for this compound? CC(C)[C@@H]1NC(=O)[C@H](CCCCN)NC(=O)[C@@H](Cc2c[nH]c3ccccc23)NC(=O)[C@H](Cc2ccc(O)cc2)NC(=O)[C@@H](NC(=O)[C@H](N)Cc2ccc3ccccc3c2)CSSC[C@@H](C(=O)N[C@H](C(N)=O)[C@@H](C)O)NC1=O
Marked response: 6.10
